Target: Est_p6 (uncultured bacterium, UniProt D7NJ22)
Construct: predicted signal peptide (residues 1-26) removed, from residue 27 of 357; C-terminal 6xHis tag kept (pET-28a, NcoI/HindIII); E. coli BL21(DE3); Ni-NTA; 36 kDa by SDS-PAGE
Sequence (D7NJ22 27-357 limits assumed): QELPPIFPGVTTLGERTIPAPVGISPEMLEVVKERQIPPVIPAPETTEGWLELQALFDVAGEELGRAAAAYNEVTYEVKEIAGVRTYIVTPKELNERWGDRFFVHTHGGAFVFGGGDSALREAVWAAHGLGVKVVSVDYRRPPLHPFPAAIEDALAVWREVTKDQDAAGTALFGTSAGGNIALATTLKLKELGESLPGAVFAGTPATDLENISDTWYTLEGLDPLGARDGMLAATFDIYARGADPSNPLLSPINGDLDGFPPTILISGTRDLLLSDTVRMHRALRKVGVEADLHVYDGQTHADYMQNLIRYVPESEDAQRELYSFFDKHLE
Test: spectrophotometric pNP release at […] nm, Lineweaver-Burk
Type: biochemical
Details: 50 mM Tris-HCl pH 8.60, 50°C, 4% ethanol
measured_endpoint: Km (µM)

I = CCCCCCCCCCCC(=O)Oc1ccc([N+](=O)[O-])cc1 [C12, pNP laurate]
II = CCCCCCCC(=O)Oc1ccc([N+](=O)[O-])cc1 [C8, pNP caprylate]
Hi, I'm comparing I with II and wondering which one has the bigger number for Km. Any idea? # reply format: chosen label II
(II: 322 µM, I: 149 µM)

a = CCCC(=O)Oc1ccc([N+](=O)[O-])cc1 [C4, pNP butyrate]
b = CC(=O)Oc1ccc([N+](=O)[O-])cc1 [C2, pNP acetate]
Pick one, a or b : lowest reported Km. Mark your answer with the label of the selected entry. a
(a: 1150 µM, b: 2640 µM)
